Some binders, each annotated with its measured optical density.
Target: T1, Goat anti-Human Kappa
T1 construct: Positive control of the ELISA; also called biotinylated goat anti-human kappa light chain
Experiment: ELISA, positive control; also: test concentration or dose not given here
endpoint.label: optical density (OD)

binder: 369_F06 (antibody, V domains shown) VH: EVQLLESGGGLVQPGGSLRLSCAASGFTFDDYSMNWVRQAPGKGLEWVAGINYNGGYKGYADSVKGRFTISRDNSKNTLYLQMNSLRAEDTAVYYCARSANWHDTALDYWGQGTLVTVSS VL: DIQMTQSPSSLSASVGDRVTITCRASQSIVSYVNWYQQKPGKAPKLVIYAATSRASGVPSRFSGSGSGTDFTLTISSLQPEDFATYYCQQSYDSPLTFGGGTKVEIK
recorded.value: 3.51
--
binder: 373_C02 (antibody, V domains shown) VH: EVQLLESGGGLVQPGGSLRLSCAASGFTFDDYSMNWVRQAPGKGLEWVSGINYNSGYKGYADSVKGRFTISRDNSKNTLYLQMNSLRAEDTAVYYCARSANWHDTALDYWGQGTLVTVSS VL: DIQMTQSPSSLSASVGDRVTITCRASQSILSYVNWYQQKPGKAPKLLIYAATSRASGVPSRFSGSGSGTDFTLTISSLQPEDFATYYCQQSYNTPLTFGGGTKVEIK
recorded.value: 3.15
--
binder: 372_D02 (antibody, V domains shown) VH: EVQLLESGGGLVQPGGSLRLSCAASGFTFSSYGMHWVRQAPGKGLEWVAGINYNGGYTGYADSVKGRFTISRDNSKNTLYLQMNSLRAEDTAVYYCARSANWHDTALDYWGQGTLVTVSS VL: DIQMTQSPSSLSASVGDRVTITCRASQSILTYLNWYQQKPGKAPKLVIYAATSRASGVPSRFSGSGSGTDFTLTISSLQPEDFATYYCQQSYDNPLTFGGGTKVEIK
recorded.value: 3.58
--
binder: 372_F03 (antibody, V domains shown) VH: EVQLLESGGGLVQPGGSLRLSCAASGFTFSSYGMNWVRQAPGKGLEWVAGINYNGGYTSYADSVKGRFTISRDNSKNTLYLQMNSLRAEDTAVYYCARSANWHDTALDYWGQGTLVTVSS VL: DIQMTQSPSSLSASVGDRVTITCRASQSILSYLNWYQQKPGKAPKLVIYAATSRASGVPSRFSGSGSGTDFTLTISSLQPEDFATYYCQQSYDTPLTFGGGTKVEIK
recorded.value: 3.6
--
binder: 370_G06 (antibody, V domains shown) VH: EVQLLESGGGLVQPGGSLRLSCAASGFTFSDYGMHWVRQAPGKGLEWVSSINYNGGYTSYADSVKGRFTISRDNSKNTLYLQMNSLRAEDTAVYYCARSANWHDTALDYWGQGTLVTVSS VL: DIQMTQSPSSLSASVGDRVTITCRASQSILSYVNWYQQKPGKAPKLVIYAATSRASGVPSRFSGSGSGTDFTLTISSLQPEDFATYYCQQSDNTPLTFGGGTKVEIK
recorded.value: 3.41
